The origin of these recorded values is PubChem BioAssay (NCI).

# experiment.summary: NCI Yeast Anticancer Drug Screen. Data for the mlh1 rad18 strain (AID 175)
# condition.parameters: S. cerevisiae mlh1 rad18 strain growth inhibition; at 50.0 µM; active compounds read high
The panel holds about 79,000 compounds, 15% with a hit somewhere; the sample as a whole holds those more often.
endpoint.label: growth inhibition (%)
Response body: numeric value in %, unit text excluded.

O=C(O)c1cccc(Br)c1    -5.5

Read the entry O=[N+]([O-])C1CCC(N=Nc2c(O)ccc3ccccc23)CC1 (centres undefined) and write its reported growth inhibition.
-0.6

Answer with reported growth inhibition of `CCOC(=O)Cn1c(=O)n(C)c(=O)c2[nH]cnc21`
28.5

Given the compound CC1OC(OCC2OC(Oc3ccc4c(=O)c(-c5ccc6c(c5)OCO6)coc4c3)C(O)C(O)C2O)C(O)C(O)C1O (centres undefined) , write its reported growth inhibition.
8.85

Identify measured growth inhibition associated with `CS(=O)(=O)Nc1cccc(C(=O)O)c1`
-23

Give reported growth inhibition value for CC1CN(C(=S)Nc2cccc3ccccc23)CC(C)O1 (centres undefined)
7.8

Supply growth inhibition value. Item: `O=C(NCc1ccccc1)C1CCN(Cc2c[nH]c3ccccc23)CC1`
28.7

# return recorded growth inhibition for entry Nc1nc2c(nc(Br)n2C2OC(CO)C(O)C2O)c(=O)[nH]1 (centres undefined)
-9.65

Give the reported value of growth inhibition for this record: OCC(O)C(O)C(O)[C@H](O)c1nc2ccccc2[nH]1 (some centres undefined)
14.8

Respond only with growth inhibition recorded for CC(=O)NC(CCCCNC(=O)OCc1ccccc1)C(=O)O (centres undefined)
-32.8

Entry `N#Cc1c(N)nc(Nc2cccc3ccccc23)c(C#N)c1C#N` needs its growth inhibition filled in; supply it.
36.8

Specify reported growth inhibition for the compound shown: `COc1cc(C(=O)CCC(=O)O)c(OC)c(CBr)c1CBr`
-13.8

Give the measured growth inhibition for `N#CNc1nc(N)cc(=O)[nH]1`
11.2

Read off the recorded growth inhibition for CC(C#N)N(C)c1c([N+](=O)[O-])c(=O)n(C)c(=O)n1C (centres undefined)
-20.7

Return value of growth inhibition for input C1CCCC(N2N=NC3C4CC(C5N=NN(C6CCCCCC6)C45)C32)CC1 (centres undefined) , no commentary.
11.7

Consider the compound `C[C@]12CC[C@@H]3c4ccc(OP(=O)(O)O)cc4CC[C@H]3[C@@H]1CCC2=O` . State its measured growth inhibition.
-14.1

Quote growth inhibition reported for `Nc1ccc(Br)c2ccccc12` please.
46.4

Look up and state reported growth inhibition for `Cc1cccc(/C=C/c2csnn2)n1`
-15.2

Tell me measured growth inhibition for `CCOCCC(=O)O` please.
6.15

Respond only with growth inhibition recorded for `CN(C)C(=S)N(C)C`
-23.7

Supply recorded growth inhibition for `COc1cc(=O)cc2n(-c3cc(OC)c(O)c(OC)c3)c3ccccc3nc1-2` here.
23.5

Specify growth inhibition for CCCCC(CC)C1OCC(O)CO1 (centres undefined) and stop.
-14.3
